Reference source for all entries: patent US20240400614A1

Biological target: uPA (Homo sapiens)
Experiment: FRET peptide cleavage efficiency with uPA
Assay type: biochemical
Settings: pH 7.5; t = 120 min (Table 7)
Square brackets hold non-standard residues; d marks the D form. Ends that are not written are not given here. Tyr(3-NO2) = N[C@@H](Cc1ccc(O)c([N+](=O)[O-])c1)C(=O)O; 2Abz = Nc1ccccc1C(=O)O
measured_parameter: % cleavage uPA t = 120 min (%)
Answer format: numeric, % implied, no suffix.

The measured % cleavage uPA t = 120 min associated with SGRVLRKAGPQPLVD ([2Abz]SGRVLRKAGPQPLVD[Tyr(3-NO2)]-NH2) [LNK003] reads 0

The measured % cleavage uPA t = 120 min associated with SSRGRRGPYMLQG ([2Abz]SSRGRRGPYMLQG[Tyr(3-NO2)]-NH2) [LNK021] reads 19

The measured % cleavage uPA t = 120 min associated with SSRGPYMLQG ([2Abz]SSRGPYMLQG[Tyr(3-NO2)]-NH2) [LNK022] reads 0

The measured % cleavage uPA t = 120 min associated with SGRVAGLVG ([2Abz]SGRVAGLVG[Tyr(3-NO2)]-NH2) [LNK016] reads 10

The measured % cleavage uPA t = 120 min associated with SGRVLRKAGPANLVG ([2Abz]SGRVLRKAGPANLVG[Tyr(3-NO2)]-NH2) [LNK014] reads 0

The measured % cleavage uPA t = 120 min associated with RQRRSPLGLAG ([2Abz]RQRRSPLGLAG[Tyr(3-NO2)]-NH2) [LNK010] reads 0

The measured % cleavage uPA t = 120 min associated with SGRVANLVG (not fully specified (N-terminus, C-terminus)) [LNK017] reads 13

---

Target: MMP-2 (Homo sapiens, UniProt P08253)
Construct: purchased SIGMA PF023
Sequence (P08253 110-660): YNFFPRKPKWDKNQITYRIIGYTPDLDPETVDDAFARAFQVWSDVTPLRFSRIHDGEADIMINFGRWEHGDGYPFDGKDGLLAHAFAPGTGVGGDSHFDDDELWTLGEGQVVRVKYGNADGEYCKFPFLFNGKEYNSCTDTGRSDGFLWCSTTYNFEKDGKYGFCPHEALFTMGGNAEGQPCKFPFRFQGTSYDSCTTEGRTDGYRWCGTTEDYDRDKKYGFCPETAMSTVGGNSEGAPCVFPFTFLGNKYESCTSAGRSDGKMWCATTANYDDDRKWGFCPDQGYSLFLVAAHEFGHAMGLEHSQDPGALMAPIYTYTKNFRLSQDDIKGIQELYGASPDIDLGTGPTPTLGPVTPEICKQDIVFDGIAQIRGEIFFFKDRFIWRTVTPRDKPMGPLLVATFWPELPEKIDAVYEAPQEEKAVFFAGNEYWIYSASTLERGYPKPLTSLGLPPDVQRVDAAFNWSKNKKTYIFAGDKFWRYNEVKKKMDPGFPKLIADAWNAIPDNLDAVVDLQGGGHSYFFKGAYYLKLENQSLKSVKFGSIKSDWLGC
Assay: FRET peptide cleavage efficiency with MMP-2
Type: biochemical
Settings: t = 60 min (Table 9)
Square brackets hold non-standard residues; d marks the D form. Ends that are not written are not given here. Tyr(3-NO2) = N[C@@H](Cc1ccc(O)c([N+](=O)[O-])c1)C(=O)O; 2Abz = Nc1ccccc1C(=O)O
For each record, write down the corresponding % cleavage MMP-2 t = 60 min.
Answer format: numeric, % implied, no suffix.

The measured % cleavage MMP-2 t = 60 min associated with SGRVANLVG (not fully specified (N-terminus, C-terminus)) [LNK017] reads 97

The measured % cleavage MMP-2 t = 60 min associated with RGRRHSSKLQPLGYFGKL ([2Abz]RGRRHSSKLQPLGYFGKL[Tyr(3-NO2)]-NH2) [LNK062] reads 100

The measured % cleavage MMP-2 t = 60 min associated with SGRVAPYMLQG ([2Abz]SGRVAPYMLQG[Tyr(3-NO2)]-NH2) [LNK042] reads 91

The measured % cleavage MMP-2 t = 60 min associated with SSRGRRGPYMLQG ([2Abz]SSRGRRGPYMLQG[Tyr(3-NO2)]-NH2) [LNK021] reads 64

---

For each record, write down the corresponding % cleavage MMP-2 t = 120 min.
Biological target: MMP-2 (Homo sapiens, UniProt P08253)
Construct: purchased SIGMA PF023
Sequence (P08253 110-660): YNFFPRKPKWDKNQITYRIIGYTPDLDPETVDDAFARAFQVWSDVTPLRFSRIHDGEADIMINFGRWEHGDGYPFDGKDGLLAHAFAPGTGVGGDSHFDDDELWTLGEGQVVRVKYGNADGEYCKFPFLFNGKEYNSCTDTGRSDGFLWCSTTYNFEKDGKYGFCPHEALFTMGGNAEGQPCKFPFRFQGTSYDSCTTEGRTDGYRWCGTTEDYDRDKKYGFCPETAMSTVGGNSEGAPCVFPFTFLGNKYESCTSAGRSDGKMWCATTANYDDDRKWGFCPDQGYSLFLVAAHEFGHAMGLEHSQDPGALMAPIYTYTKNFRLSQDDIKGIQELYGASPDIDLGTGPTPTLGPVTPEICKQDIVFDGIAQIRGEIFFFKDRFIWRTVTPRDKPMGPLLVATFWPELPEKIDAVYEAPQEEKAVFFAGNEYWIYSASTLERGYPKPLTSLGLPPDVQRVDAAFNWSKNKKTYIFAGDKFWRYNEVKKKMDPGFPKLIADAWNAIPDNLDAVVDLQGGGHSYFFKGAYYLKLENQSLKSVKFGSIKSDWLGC
Test: FRET peptide cleavage efficiency with MMP-2
Assay type: biochemical
Details: t = 120 min; standard conditions (Table 8)
Square brackets hold non-standard residues; d marks the D form. Ends that are not written are not given here. Tyr(3-NO2) = N[C@@H](Cc1ccc(O)c([N+](=O)[O-])c1)C(=O)O; Nle = CCCC[C@H](N)C(=O)O; 2Abz = Nc1ccccc1C(=O)O
Answer format: numeric, % implied, no suffix.

The measured % cleavage MMP-2 t = 120 min associated with RGRKSPANLVG ([2Abz]RGRKSPANLVG[Tyr(3-NO2)]-NH2) [LNK034] reads 100

The measured % cleavage MMP-2 t = 120 min associated with RQRKVANLVG ([2Abz]RQRKVANLVG[Tyr(3-NO2)]-NH2) [LNK032] reads 100

The measured % cleavage MMP-2 t = 120 min associated with SGRVQPLVD (not fully specified (N-terminus, C-terminus)) [LNK047] reads 9

The measured % cleavage MMP-2 t = 120 min associated with RGRKPY-Nle-LQG ([2Abz]RGRKPY[Nle]LQG[Tyr(3-NO2)]-NH2) [LNK036] reads 88

The measured % cleavage MMP-2 t = 120 min associated with RGRKVANLVG ([2Abz]RGRKVANLVG[Tyr(3-NO2)]-NH2) [LNK031] reads 100

The measured % cleavage MMP-2 t = 120 min associated with RGRRGP ([2Abz]RGRRGP[Tyr(3-NO2)]-NH2) [LNK048] reads 0

The measured % cleavage MMP-2 t = 120 min associated with RGRRVANLVG ([2Abz]RGRRVANLVG[Tyr(3-NO2)]-NH2) [LNK033] reads 100

The measured % cleavage MMP-2 t = 120 min associated with RGRKSQPLVD ([2Abz]RGRKSQPLVD[Tyr(3-NO2)]-NH2) [LNK041] reads 0

The measured % cleavage MMP-2 t = 120 min associated with RGRKSPQPLVD ([2Abz]RGRKSPQPLVD[Tyr(3-NO2)]-NH2) [LNK040] reads 47

---

Biological target: Kallikrein-3 (Homo sapiens)
Sequence (P07288 25-261, species assumed): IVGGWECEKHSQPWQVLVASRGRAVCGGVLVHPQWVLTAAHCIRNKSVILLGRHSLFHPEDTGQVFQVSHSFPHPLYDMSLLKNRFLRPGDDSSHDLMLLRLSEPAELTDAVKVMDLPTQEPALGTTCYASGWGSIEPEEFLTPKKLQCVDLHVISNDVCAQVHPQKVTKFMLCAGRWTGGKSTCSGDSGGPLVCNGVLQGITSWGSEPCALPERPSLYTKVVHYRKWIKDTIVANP
Assay: FRET peptide cleavage efficiency with Kallikrein-3
Format: biochemical
Details: t = 1 h; peptide 200 uM, Kallikrein-3 2 μg/ml, 37° C., pH 8
Square brackets hold non-standard residues; d marks the D form. Ends that are not written are not given here. Tyr(3-NO2) = N[C@@H](Cc1ccc(O)c([N+](=O)[O-])c1)C(=O)O; 2Abz = Nc1ccccc1C(=O)O
For each record, write down the corresponding Kallikrein-3 t = 1 h % cleavage.
Answer format: numeric, % implied, no suffix.

The measured Kallikrein-3 t = 1 h % cleavage associated with SSLQSSPG ([2Abz]SSLQSSPG[Tyr(3-NO2)]-NH2) [LNK066] reads 14

The measured Kallikrein-3 t = 1 h % cleavage associated with RGRRHSSKLQ ([2Abz]RGRRHSSKLQ[Tyr(3-NO2)]-NH2) [LNK052] reads 8

The measured Kallikrein-3 t = 1 h % cleavage associated with SSLYSSPG ([2Abz]SSLYSSPG[Tyr(3-NO2)]-NH2) [LNK065] reads 32

The measured Kallikrein-3 t = 1 h % cleavage associated with RRLHYSL ([2Abz]RRLHYSL[Tyr(3-NO2)]-NH2) [LNK073] reads 20

The measured Kallikrein-3 t = 1 h % cleavage associated with HSSKLQL ([2Abz]HSSKLQL[Tyr(3-NO2)]-NH2) [LNK078] reads 10
